assayOverview: protein stability index of a GFP-peptide fusion (yeast GPS) (PSI 1-4); higher = more stable; sorted into four equal gates, so the index is relative within each strain
experimentalContext: pdr5∆
property: protein stability index

Qu. Give the measured protein stability index of SKIIVFPRDGKAPEAEQ [RPL13B] .
Ans. 3.2

Qu. Entry IERYPLKVTKKHGAKKV [RPL27A] please
Ans. 3.6

Qu. For RYKPGTVALREIRRFQK [HHT1] then?
Ans. 2.97

Qu. Repeat with TMTISHLLLGFQVSNVI [YJL039C/NUP192]
Ans. 1.72

Qu. Moving on to the next sequence: NLNDKFGIYILTQGING [MED1]
Ans. 1.47

Qu. Note, next up: VDVLGTHSQTGTQQSNM [SIR4]
Ans. 2.91

Qu. And what about the sequence TRELAEEGYSGVEVRVT [RPS3] ?
Ans. 3

Qu. And then LSGLAQRKTNGASNGDD [BRN1] , what is it?
Ans. 3.29

Qu. Then YVFNARPDGVHVINVGK [RPS0A] ?
Ans. 2.78

Qu. Field entry: NILIASLMDTLITPAVR [YCG1]
Ans. 1.91

Qu. Next record, please: AQAQAQAQAQAHAQHQP [GAL11]
Ans. 2.93

Qu. Proceed to DKPYLLRIVTHLAICLD [YDL116W/NUP84]
Ans. 1.28

Qu. Now the same for NECIASTSNALKVLSGD [SNF12]
Ans. 2.86

Qu. Queued: QAYEEIISSNENALIEL [YIL149C/MLP2]
Ans. 3.07

Qu. Record: KKVLEIDFFKTDDSFED [BRN1]
Ans. 2.08

====

assayOverview: protein stability index of a GFP-peptide fusion (yeast GPS) (PSI 1-4); higher = more stable; sorted into four equal gates, so the index is relative within each strain
experimentalContext: ubr1∆
If the reported protein stability index equals or exceeds 3, assign T. If not, assign F.

sequenceText: AADTSIVEQDKSMELFY [YJL039C/NUP192]
assignedCategory: F
//
sequenceText: YEIRDIDQDIHGIVFQH [SSN2]
assignedCategory: F

Qu. State whether the measured protein stability index reaches 3, counting equality as reaching it, for TRELAEEGYSGVEVRVT [RPS3]
Ans. F

Qu. Another sequence: DTKIDQVNGNIRKVSND [SMC3]
Ans. T

Qu. Entry to check: VSLTQLRCVKYLQETAI [RPC82]
Ans. T

Qu. Repeat with VEQDEGQCRTELEGSFN [YCS4]
Ans. T

Qu. Would you mind doing KQRKNPRRIAWTVLFRK [RPL24A] as well?
Ans. F

Qu. Same thing, different sequence: NNNNNNNDDNGNNNNNN [MED2]
Ans. T

Qu. Same again, this time with KIPLFTFAKSKNYSRPS [SIR4]
Ans. F

====

assayOverview: protein stability index of a GFP-peptide fusion (yeast GPS) (PSI 1-4); higher = more stable; sorted into four equal gates, so the index is relative within each strain
experimentalContext: pdr5∆
property: protein stability index
Form: value (number only, do not type unit).

sequenceText: FLPFNNSASNNGNLTSN [SWI1]
protein stability index: 3.02

Qu. Record request: protein stability index value, item KRTIRIKTQQHILPEVP [TAF14]
Ans. 2.02

Qu. And for SGNIQLDEIIEIARQMR [RPL12A] ?
Ans. 3

Qu. Same read-out for NVEEEQIVPYIEKLTDG [BRR2] ?
Ans. 3.06
